target: CDK7/cyclinH/MAT1 trimeric complex (Homo sapiens, UniProt P50613); test: In vitro CDK7 assay, potency of irreversible covalent inhibitors (kinact/KI), coupled PK/LDH ADP readout at 340 nm; conditions: read-out: CDK7 (20 nM enz.) (kinact, s^−1), 20 nM enzyme
Sequence (P50613 whole entry): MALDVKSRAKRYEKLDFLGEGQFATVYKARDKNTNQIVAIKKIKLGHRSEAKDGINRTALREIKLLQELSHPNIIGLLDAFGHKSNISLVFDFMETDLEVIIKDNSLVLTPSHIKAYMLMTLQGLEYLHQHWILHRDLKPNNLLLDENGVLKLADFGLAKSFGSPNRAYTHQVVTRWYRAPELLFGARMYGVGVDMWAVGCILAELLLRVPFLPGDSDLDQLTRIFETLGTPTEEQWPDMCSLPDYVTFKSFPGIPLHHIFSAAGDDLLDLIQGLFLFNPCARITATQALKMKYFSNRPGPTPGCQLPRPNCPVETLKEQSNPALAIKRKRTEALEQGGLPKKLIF
Sequence (P51946 whole entry partner): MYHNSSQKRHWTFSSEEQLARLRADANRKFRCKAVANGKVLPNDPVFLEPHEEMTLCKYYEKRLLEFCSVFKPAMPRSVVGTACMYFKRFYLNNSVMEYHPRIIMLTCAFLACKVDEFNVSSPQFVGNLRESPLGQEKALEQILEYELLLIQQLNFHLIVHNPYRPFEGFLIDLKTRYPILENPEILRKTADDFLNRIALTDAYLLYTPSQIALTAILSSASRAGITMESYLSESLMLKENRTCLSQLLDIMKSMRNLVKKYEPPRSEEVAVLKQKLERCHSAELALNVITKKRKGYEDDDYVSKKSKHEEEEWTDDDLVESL
Sequence (P51948 whole entry partner): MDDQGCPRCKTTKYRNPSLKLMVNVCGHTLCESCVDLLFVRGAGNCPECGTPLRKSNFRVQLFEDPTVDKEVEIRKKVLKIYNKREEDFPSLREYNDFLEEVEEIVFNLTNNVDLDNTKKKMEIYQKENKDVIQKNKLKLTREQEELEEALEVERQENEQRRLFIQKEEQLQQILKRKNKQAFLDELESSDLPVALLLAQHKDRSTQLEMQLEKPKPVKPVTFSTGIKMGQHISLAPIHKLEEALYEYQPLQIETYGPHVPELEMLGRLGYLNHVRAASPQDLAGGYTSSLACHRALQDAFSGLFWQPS
Experimental Endpoint: kinact (s⁻¹)
Your answer should be a plain number; it is taken to be in s⁻¹.

// query Requested field: kinact. Item: C=CC(=O)Nc1ccc(C(=O)Nc2ccc3c(c2)Nc2nccc(C4CCOCC4)c2CO3)cc1 [Compound 1]
// result 5.77e-05

// query Requested field: kinact. Item: CC#CC(=O)N1CCC(N2CC(c3cc4c(c(C#N)n3)OCc3c(N5CCOCC5)ccnc3N4)C2)CC1 [Compound 385]
// result 1.2e-05

// query Requested field: kinact. Item: CC#CC(=O)N1CC(N2CCC(c3cc4c(c(C)n3)O[C@@H](C)c3c(N5CCOCC5)ccnc3N4)CC2)C1 (single isomer, unassigned) [Compound 344]
// result 5.4e-05

// query Requested field: kinact. Item: C=CC(=O)N1CC[C@H](N2CC(c3cc(C)c4c(c3)Nc3nccc(N5CCOCC5)c3CO4)C2)C1 (single isomer, unassigned) [Compound 150]
// result 8.76e-05

// query Requested field: kinact. Item: C=CC(=O)N1CC(N2CCC(c3cc4c(cn3)O[C@@H](C)c3c(N5CCOCC5)ccnc3N4)CC2)C1 (single isomer, unassigned) [Compound 261]
// result 3.89e-05

// query Requested field: kinact. Item: CC#CC(=O)N1CCC(N2CCC(c3cc4c(c(C)n3)O[C@@H](C)c3c(N5CCOCC5)ccnc3N4)CC2)CC1 (single isomer, unassigned) [Compound 426]
// result 4.43e-05
